assay: xn = mol fraction of the nth substance listed, in the solute-free solvent; conditions: 308.15 K; x2 = 0.03225
Response key: Satisfied means solubility (g/100 g solution) >= 0.2; Not satisfied means solubility (g/100 g solution) < 0.2.

>>> label_value("Cc1ccc2cc(Br)ccc2n1 + CC(C)O + O")
"Not satisfied"
>>> label_value("Nc1cccc2ccncc12 + CCCO + O")
"Not satisfied"
>>> label_value("CN1CCC(N(Cc2cccs2)c2ccccc2)CC1 + CC(C)O + O")
"Satisfied"
>>> label_value("CN1CCC(N(Cc2cccs2)c2ccccc2)CC1 + CCCO + O")
"Satisfied"
>>> label_value("Nc1cccc2ccncc12 + CC(C)O + O")
"Not satisfied"
